Attribute: activation
# target.system: CXCR2 (Homo sapiens, UniProt P25025)
# Construct: expressed in transfected cells
# Sequence (P25025 1-360): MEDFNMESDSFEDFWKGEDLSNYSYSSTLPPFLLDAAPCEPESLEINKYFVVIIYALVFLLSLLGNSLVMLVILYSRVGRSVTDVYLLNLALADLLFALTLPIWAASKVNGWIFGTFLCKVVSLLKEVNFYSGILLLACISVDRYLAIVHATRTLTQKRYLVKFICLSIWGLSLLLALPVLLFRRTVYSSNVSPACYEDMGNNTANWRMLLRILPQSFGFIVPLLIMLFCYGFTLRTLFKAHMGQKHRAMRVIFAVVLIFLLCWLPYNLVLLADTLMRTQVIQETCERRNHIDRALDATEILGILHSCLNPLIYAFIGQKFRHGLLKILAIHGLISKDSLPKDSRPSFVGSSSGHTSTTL
# assay.protocol: Figure S2a opioid peptide screen on chemokine receptors
# Assay type: cell-based
# Parameters: dose or concentration left out as unconfirmed
# condition.parameters: replicate 2, read-out: CXCR2 activity, ctrl+ = 100
measured.property: activation (%)

{"compound.structure": "CSCC[C@H](NC(=O)[C@H](Cc1ccccc1)NC(=O)CNC(=O)CNC(=O)[C@@H](N)Cc1ccc(O)cc1)C(=O)N[C@@H](CCCNC(=N)N)C(=O)N[C@@H](CCCNC(=N)N)C(=O)N[C@H](C(N)=O)C(C)C", "reading.unit": "%", "quantitative.result": -6.62}
{"compound.structure": "CC[C@H](C)[C@H](NC(=O)[C@H](CCCNC(=N)N)NC(=O)[C@H](CCCNC(=N)N)NC(=O)[C@H](CC(C)C)NC(=O)[C@H](Cc1ccccc1)NC(=O)CNC(=O)CNC(=O)[C@@H](N)Cc1ccc(O)cc1)C(=O)N[C@@H](CCCNC(=N)N)C(=O)N1CCC[C@H]1C(=O)N[C@@H](CCCCN)C(=O)N[C@@H](CC(C)C)C(=O)N[C@@H](CCCCN)C(=O)N[C@@H](Cc1c[nH]c2ccccc12)C(=O)N[C@@H](CC(=O)O)C(=O)N[C@@H](CC(N)=O)C(=O)N[C@@H](CCC(N)=O)C(=O)O", "reading.unit": "%", "quantitative.result": -9.59}
{"compound.structure": "CC[C@H](C)[C@H](NC(=O)[C@H](CCCNC(=N)N)NC(=O)[C@H](CCCNC(=N)N)NC(=O)[C@H](CC(C)C)NC(=O)[C@H](Cc1ccccc1)NC(=O)CNC(=O)CN)C(=O)N[C@@H](CCCNC(=N)N)C(=O)N1CCC[C@H]1C(=O)N[C@@H](CCCCN)C(=O)N[C@@H](CC(C)C)C(=O)N[C@@H](CCCCN)C(=O)N[C@@H](Cc1c[nH]c2ccccc12)C(=O)N[C@@H](CC(=O)O)C(=O)N[C@@H](CC(N)=O)C(=O)N[C@@H](CCC(N)=O)C(=O)O", "reading.unit": "%", "quantitative.result": -15.9}
{"compound.structure": "CC(C)C[C@H](NC(=O)[C@H](Cc1ccccc1)NC(=O)CNC(=O)CNC(=O)[C@@H](N)Cc1ccc(O)cc1)C(=O)N[C@@H](CCCN=C(N)N)C(=O)N[C@@H](CCCN=C(N)N)C(=O)N[C@@H](CCC(N)=O)C(=O)N[C@@H](Cc1ccccc1)C(=O)N[C@@H](CCCCN)C(=O)N[C@H](C(=O)N[C@H](C(=O)N[C@H](C(=O)O)[C@@H](C)O)C(C)C)C(C)C", "reading.unit": "%", "quantitative.result": -10}
{"compound.structure": "CC[C@H](C)[C@H](NC(=O)[C@H](CCCNC(=N)N)NC(=O)[C@H](CCCNC(=N)N)NC(=O)[C@H](CC(C)C)NC(=O)[C@H](Cc1ccccc1)NC(=O)CNC(=O)CNC(=O)[C@@H](N)Cc1ccc(O)cc1)C(=O)N[C@@H](CCCNC(=N)N)C(=O)N1CCC[C@H]1C(=O)N[C@@H](CCCCN)C(=O)N[C@@H](CC(C)C)C(=O)N[C@@H](CCCCN)C(=O)O", "reading.unit": "%", "quantitative.result": -22.4}
